Each recorded value in this set is attributed to PubChem BioAssay (EPA / NIEHS).

run-description: ATG_MRE_CIS: Attagene CIS-FACTORIAL HepG2 Assay for human Metal Responsive Element (MRE) (AID 2282954)
condition-set: HepG2 MRE cis-reporter transcription, Attagene multiplex; actives raise or lower the signal
The source made the active and inactive calls. Rule for the calls: active = hit-call score of the fitted dose curve at least 0.9, where 1 is the maximum; inactive = score below 0.9.
endpoint-label: AC50

Here's what some known entries look like.
[[record]]
compound = "CCOC(=O)c1ccccc1C(=O)OCC"
reported_result = "inactive"

[[record]]
compound = "Oc1ccccc1Br"
reported_result = "inactive"

[[record]]
compound = "CC(C)(C)c1ccccc1OP(=O)(Oc1ccccc1)Oc1ccccc1"
reported_result = "inactive"

[[record]]
compound = "Cc1c([N+](=O)[O-])cc2c(c1[N+](=O)[O-])C(C)(C)CC2(C)C"
reported_result = "inactive"


State the recorded AC50 for this entry: CSC(C)(C)C=NO
inactive

----------
Read-out: Thrombomodulin, THBD (gene 7056)
run-description: BSK_LPS_Thrombomodulin: BioMAP Diversity Plus: LPS Assay for Thrombomodulin Biomarker Activity (AID 2284296)
condition-set: primary human HUVEC with PBMC
Calls of active or inactive are those of the source. The calls were made as follows: active = hit-call score of the fitted dose curve at least 0.9, where 1 is the maximum; inactive = score below 0.9.
endpoint-label: outcome

Consider the following illustrative entries.
[[record]]
compound = "CC(O)C(F)(F)C(F)(F)F (centres undefined)"
endpoint_label = "outcome"
reported_result = "inactive"

[[record]]
compound = "O=C(O)C(F)(F)OC(F)(F)C(F)(F)OC(F)(F)C(=O)O"
endpoint_label = "outcome"
reported_result = "inactive"

[[record]]
compound = "O=S(=O)(F)C(F)(F)C(F)(F)C(F)(F)C(F)(F)C(F)(F)C(F)(F)C(F)(F)C(F)(F)F"
endpoint_label = "outcome"
reported_result = "inactive"

[[record]]
compound = "OCC(F)(F)OC(F)(F)C(F)(F)OC(F)(F)C(F)(F)OC(F)(F)F"
endpoint_label = "outcome"
reported_result = "inactive"

[[record]]
compound = "NC(=O)C(F)(F)C(F)(F)F"
endpoint_label = "outcome"
reported_result = "inactive"


Find the recorded outcome belonging to FC(F)(F)C(F)(C(F)(F)F)C(F)(F)C(F)(F)CC1CO1 (centres undefined) and report it.
inactive

Do the same for COC(=O)C(F)(F)C(F)(F)OC(F)(C(F)(F)F)C(F)(F)OC(F)=C(F)F (centres undefined) please
inactive

Also, O=C(O)C(F)(F)OC(F)(F)C(F)(F)OC(F)(F)F please.
inactive

For O=C(O)C=CC(F)(C(F)(F)F)C(F)(F)F then?
inactive

----------
run-description: ATG_TCF_b_cat_CIS: Attagene CIS-FACTORIAL HepG2 Assay for human T-Cell-Factor with beta-catenin (TCF/b-cat) (AID 2282965)
condition-set: HepG2 TCF/beta-catenin cis-reporter transcription, actives raise or lower the signal
The source made the active and inactive calls. The calls were made as follows: active = hit-call score of the fitted dose curve at least 0.9, where 1 is the maximum; inactive = score below 0.9.
Give one outcome, nothing more. List: active, inactive

Query: recorded result category for Cn1[nH]nnc1=S in this test
inactive

What do we get for CC(O)C(F)(F)C(F)(F)F (configuration not stated) ?
inactive

Same question for CCN(CC)c1ccccc1 please.
inactive

Try this molecule too: O=P(Oc1ccccc1)(Oc1ccccc1)Oc1ccccc1
inactive

Now the molecule Oc1ccc(I)cc1
inactive

Now give it for OCC1CO1 (configuration not stated) too.
inactive

And the next one, CC(Cl)CN(C)C (configuration not stated) ?
inactive

Let us now turn to Clc1ccc(Oc2ccccc2)cc1
inactive

Same question, CCOS(=O)(=O)OCC this time
inactive

Next entry: CC(C)CBr
inactive

Next entry: ClC(Cl)c1ccccc1
inactive

Item: Cc1ccc2c(c1N)C(=O)c1ccccc1C2=O
inactive

Let us now turn to CCN(CC)C1CCCCC1
inactive

For O=c1ssc(Cl)c1Cl then?
active

Again, but for N#C/C=C/c1ccccc1
inactive

Then what about the molecule Cc1ccc(C(=O)Cl)cc1 ?
inactive

Would you kindly repeat that for N#Cc1ccc(O)cc1 ?
inactive

----------
Read-out: CYP2C9 (gene 1559)
run-description: LTEA_HepaRG_CYP2C9: Life Technologies and Expression Analysis (LTEA) Assay for CYP2C9 using HepaRG (AID 2283484)
condition-set: mRNA level, 48 h; actives raise or lower the signal
Activity calls are given as the source filed them. How the source made its calls: active means hit-call score of the fitted dose curve at least 0.9, where 1 is the maximum; inactive means score below 0.9.
Pick one and only one: Yes for active, No for inactive

# lookup: test call for [N-]=[N+]=[N-]
Yes

Would you kindly repeat that for Nc1ccc2ccccc2c1 ?
No

Another: CCC(C)(C)c1ccc(O)cc1
No

Cool, now CCCCN(CCCC)N=O
No

Now consider CCC1(c2ccccc2)C(=O)N=C(O)NC1=O (stereo not drawn) and answer again.
No

And Nc1ccc(Cl)cc1 ?
No

Record: CCCCCCCc1ccc(O)cc1
No

# iterate: O=C(O)C1C(C(=O)O)C2(Cl)C(Cl)=C(Cl)C1(Cl)C2(Cl)Cl (stereo not drawn)
No

Same read-out for CSC(C)(C)C=NO ?
No

Field entry: c1nc[nH]n1
No

Record: CCOS(=O)(=O)OCC
No

Do the same for CCOC(=O)c1ccccc1C(=O)OCC please
No

Do the same for O=P(Oc1ccccc1)(Oc1ccccc1)Oc1ccccc1 please
No

Note, next up: CCCN(CCC)c1c([N+](=O)[O-])cc(C(C)C)cc1[N+](=O)[O-]
Yes

Try this compound too: c1ccc2c(c1)Nc1ccccc1S2
No

// repeat for O=P1(N(CCCl)CCCl)NCCCO1 (stereo not drawn) and report
No

# iterate: O=[N+]([O-])c1ccc(Cl)c(Cl)c1
No

What would you report for CC(Cl)(Cl)C(=O)O ?
No

# iterate: CCOP(=S)(OCC)SCSCC
No

# repeat for OCC1CO1 (stereo not drawn)
No

Next up: CCCCN(CCCC)SN(C)C(=O)Oc1cccc2c1OC(C)(C)C2
No

Next record, please: CCN(CC)c1ccccc1
No

Again, but for O=C(O)C(Cl)Cl
No

----------
run-description: CEETOX_H295R_CORTISOL: CeeTox H295R High-throughput Steroidogenesis Assay for Cortisol (AID 2283438);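 note: cortisol secreted into medium quantified by LC-MS/MS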
condition-set: actives raise or lower the signal
Active and inactive are the calls of the source. Rule for the calls: active = hit-call score of the fitted dose curve at least 0.9, where 1 is the maximum; inactive = score below 0.9.
Pick one and only one: Yes for active, No for inactive

Assay outcome for Nc1ccc([N+](=O)[O-])cc1Cl : what was it?
No

Similarly, CCCCOCCOP(=O)(OCCOCCCC)OCCOCCCC ?
No

What about this compound? Nc1cc2c3c(c1)C(c1ccccc1)=N[C@@H](NC(=O)c1cccnc1)C(=O)N3CC2
Yes

----------
run-description: CCTE_Shafer_MEA_dev_active_electrodes_number: CCTE's Neural Network Formation Assay for Number of Active Electrodes, Shafer Lab (AID 2284040)
Results filed as inconclusive are left out. The source made the active and inactive calls. Rule for the calls: active = hit-call score of the fitted dose curve at least 0.9, where 1 is the maximum; inconclusive = response in the unintended direction; inactive = score below 0.9.
Please answer using one outcome listed in yes for active, no for inactive

// outcome(item) with item = C=CC(=O)OCC(F)(F)C(F)F
yes

What do we get for O=P1(N(CCCl)CCCl)NCCCO1 (stereo unspecified) ?
no

How about this compound: CCCCC(CC)COC(=O)c1c(Br)c(Br)c(Br)c(Br)c1C(=O)OCC(CC)CCCC (stereo unspecified)
no

Then what about the compound ClC1=C(Cl)C2(Cl)C3C(Cl)C(Cl)CC3C1(Cl)C2(Cl)Cl (stereo unspecified) ?
yes

Item: O=P(Oc1ccccc1)(Oc1ccccc1)Oc1ccccc1
no

Okay, and OCC(F)(F)OC(F)(F)C(F)(F)OC(F)(F)C(F)(F)OC(F)(F)F ?
no

----------
Read-out: Insulin-like growth factor-binding protein 1 (IGFBP1), IGFBP1 (gene 3484)
run-description: LTEA_HepaRG_IGFBP1: Life Technologies and Expression Analysis (LTEA) Assay for Insulin-like growth factor-binding protein 1 (IGFBP1) using HepaRG (AID 2283508)
condition-set: mRNA level, 48 h; actives raise or lower the signal
Calls of active or inactive are those of the source. Rule for the calls: active = hit-call score of the fitted dose curve at least 0.9, where 1 is the maximum; inactive = score below 0.9.
endpoint-label: AC50

Known AC50 results, listed for orientation:
[[record]]
molecule = "OCC1CO1 (stereo unspecified)"
reported_result = "inactive"

[[record]]
molecule = "c1ccc2c(c1)Nc1ccccc1S2"
reported_result = "inactive"

[[record]]
molecule = "O=P1(N(CCCl)CCCl)NCCCO1 (stereo unspecified)"
reported_result = "inactive"

[[record]]
molecule = "CCCN(CCC)c1c([N+](=O)[O-])cc(C(C)C)cc1[N+](=O)[O-]"
reported_result = "inactive"

[[record]]
molecule = "CCOS(=O)(=O)OCC"
reported_result = "inactive"


Item ClC(Cl)(Cl)c1ccccc1 has what recorded AC50?
inactive

Try the molecule CCC1(c2ccccc2)C(=O)N=C(O)NC1=O (stereo unspecified)
inactive

Then this molecule: Cc1ccc(N)cc1N
inactive

Likewise for COCCOCCO ?
inactive

CC(Cl)(Cl)C(=O)O , same question.
inactive

Input CC(C)(C)OOC(C)(C)C
inactive

What would you report for c1ccc(OP(Oc2ccccc2)Oc2ccccc2)cc1 ?
inactive

Also need c1nc[nH]n1 , thanks.
inactive

Item: O=P(Oc1ccccc1)(Oc1ccccc1)Oc1ccccc1
37.8 µM (active)

Likewise for Nc1ccc(Cl)cc1 ?
inactive

Follow-up entry: O=C(O)C1C(C(=O)O)C2(Cl)C(Cl)=C(Cl)C1(Cl)C2(Cl)Cl (stereo unspecified)
inactive
